- studyTarget: Leukotriene B4 receptor (Homo sapiens, UniProt Q9NPC1+Q15722)
- protocolSummary: Inhibition of LTB4 induced expression of human neutrophil integrin CD11b/CD18.
- Format: functional
Criterion: IC50 strictly less than 10 nM. Met: class 1. Not met: class 0.

[
  {
    "compound": "CCCc1c(OCCCOc2cc(O)c(-c3ccc(F)cc3)cc2CC)cccc1C(=O)c1ccccc1C(=O)O",
    "studyTarget": "Leukotriene B4 receptor (Homo sapiens, UniProt Q9NPC1+Q15722)",
    "qualitativeLabel": "class 0"
  },
  {
    "compound": "CCCc1c(OCCCOc2cc(O)c(-c3ccc(F)cc3)cc2CC)cccc1[S+]([O-])c1ccccc1C(=O)O (stereo unspecified)",
    "studyTarget": "Leukotriene B4 receptor (Homo sapiens, UniProt Q9NPC1+Q15722)",
    "qualitativeLabel": "class 0"
  },
  {
    "compound": "CCCc1c(OCCCOc2cc(O)c(-c3ccccc3)cc2CC)cccc1Oc1cccc(F)c1C(=O)O",
    "studyTarget": "Leukotriene B4 receptor (Homo sapiens, UniProt Q9NPC1+Q15722)",
    "qualitativeLabel": "class 1"
  },
  {
    "compound": "CCc1cc(-c2ccc(F)cc2)c(O)cc1OCCCOc1cccc(OC)c1CCC(=O)O",
    "studyTarget": "Leukotriene B4 receptor (Homo sapiens, UniProt Q9NPC1+Q15722)",
    "qualitativeLabel": "class 0"
  },
  {
    "compound": "CCCc1c(OCCCOc2cc(O)c(-c3ccc(F)cc3)cc2CC)cccc1Oc1cccc(F)c1C(=O)O",
    "studyTarget": "Leukotriene B4 receptor (Homo sapiens, UniProt Q9NPC1+Q15722)",
    "qualitativeLabel": "class 1"
  },
  {
    "compound": "CCc1cc(-c2ccc(F)cc2)c(O)cc1OCCCOc1cccc(OCCCCC(=O)O)c1CCC(=O)O",
    "studyTarget": "Leukotriene B4 receptor (Homo sapiens, UniProt Q9NPC1+Q15722)",
    "qualitativeLabel": "class 0"
  },
  {
    "compound": "CCCc1c(OCCCCOc2cc(O)c(-c3ccc(F)cc3)cc2CC)cccc1Oc1ccccc1C(=O)O",
    "studyTarget": "Leukotriene B4 receptor (Homo sapiens, UniProt Q9NPC1+Q15722)",
    "qualitativeLabel": "class 1"
  },
  {
    "compound": "CCCc1c(OCCCCCOc2cc(O)c(-c3ccc(F)cc3)cc2CC)cccc1Oc1ccccc1C(=O)O",
    "studyTarget": "Leukotriene B4 receptor (Homo sapiens, UniProt Q9NPC1+Q15722)",
    "qualitativeLabel": "class 1"
  },
  {
    "compound": "CCCc1c(OCCCOc2cc(O)c(-c3ccc(F)cc3)cc2CC)cccc1Sc1ccccc1C(=O)O",
    "studyTarget": "Leukotriene B4 receptor (Homo sapiens, UniProt Q9NPC1+Q15722)",
    "qualitativeLabel": "class 1"
  },
  {
    "compound": "CCc1cc(-c2ccc(F)cc2)c(O)cc1OCCCOc1cccc(Oc2ccccc2C(=O)O)c1CC(C)C",
    "studyTarget": "Leukotriene B4 receptor (Homo sapiens, UniProt Q9NPC1+Q15722)",
    "qualitativeLabel": "class 1"
  },
  {
    "compound": "CCCc1c(OCCCOc2cc(O)c(-c3ccc(F)cc3)cc2CC)ccc2c1OC(C(=O)O)CC2 (stereo unspecified)",
    "studyTarget": "Leukotriene B4 receptor (Homo sapiens, UniProt Q9NPC1+Q15722)",
    "qualitativeLabel": "class 0"
  }
]
